- Target under test: IgG receptor FcRn large subunit p51 (Homo sapiens)
- Test summary: Binding affinity to human FcRn at pH 6 by surface plasmon resonance assay
Kd by entry:
Quantity: Kd (µM)

* CC(C)C[C@H](NC(=O)CNC(=O)CNC(=O)[C@H](Cc1ccccc1)NC(=O)[C@H](Cc1cnc[nH]1)NC(=O)CNC(=O)[C@@H](NC(=O)[C@H](CS)NC(=O)[C@H](Cc1ccccc1)NC(=O)[C@H](CCCNC(=N)N)NC(=O)[C@@H](N)CCC(N)=O)[C@@H](C)O)C(=O)N[C@@H](Cc1ccc(O)cc1)C(=O)N1CCC[C@H]1C(=O)N[C@@H](CS)C(=O)N[C@@H](CC(N)=O)C(N)=O | 6.1
* CC(C)C[C@H](NC(=O)CNC(=O)CNC(=O)[C@H](Cc1ccccc1)NC(=O)[C@H](Cc1cnc[nH]1)NC(=O)CNC(=O)[C@@H](NC(=O)[C@H](CCC(=O)O)NC(=O)[C@H](Cc1ccccc1)NC(=O)[C@H](CCCNC(=N)N)NC(=O)[C@@H](N)CCC(N)=O)[C@@H](C)O)C(=O)N[C@@H](Cc1ccc(O)cc1)C(=O)N1CCC[C@H]1C(=O)N[C@@H](CCCCN)C(=O)N[C@@H](CC(N)=O)C(=O)NCC(=O)N1CCC[C@H]1C(=O)O | 27
* CC(C)C[C@H](NC(=O)CNC(=O)CNC(=O)[C@H](Cc1ccccc1)NC(=O)[C@H](Cc1cnc[nH]1)NC(=O)CNC(=O)[C@@H](NC(=O)[C@H](CS)NC(=O)[C@@H](N)Cc1ccccc1)[C@@H](C)O)C(=O)N[C@@H](Cc1ccc(O)cc1)C(=O)N1CCC[C@H]1C(=O)N[C@@H](CS)C(=O)N[C@@H](CC(N)=O)C(=O)NCC(=O)N1CCC[C@H]1C(=O)O | 11
* CC(C)C[C@H](NC(=O)CNC(=O)CNC(=O)[C@H](Cc1ccccc1)NC(=O)[C@H](Cc1cnc[nH]1)NC(=O)CNC(=O)[C@@H](NC(=O)[C@@H](NC(=O)[C@H](Cc1ccccc1)NC(=O)[C@H](CCCNC(=N)N)NC(=O)[C@@H](N)CCC(N)=O)C(C)(C)S)[C@@H](C)O)C(=O)N[C@@H](Cc1ccc(O)cc1[N+](=O)[O-])C(=O)N1CCC[C@H]1C(=O)N[C@@H](CS)C(=O)N[C@@H](CC(N)=O)C(=O)NCC(=O)N1CCC[C@H]1C(=O)O | 290
* CC(C)C[C@H](NC(=O)[C@@H](Cc1ccccc1)NC(=O)CNC(=O)[C@H](Cc1ccccc1)NC(=O)[C@H](Cc1cnc[nH]1)NC(=O)CNC(=O)[C@@H](NC(=O)[C@@H](NC(=O)[C@H](Cc1ccccc1)NC(=O)[C@H](CCCNC(=N)N)NC(=O)[C@@H](N)CCC(N)=O)C(C)(C)S)[C@@H](C)O)C(=O)N[C@@H](Cc1ccc(O)cc1)C(=O)N1CCC[C@H]1C(=O)N[C@@H](CS)C(=O)N[C@@H](CC(N)=O)C(=O)NCC(=O)N1CCC[C@H]1C(=O)O | 1.7

---

- Target under test: IgG receptor FcRn large subunit p51 (Homo sapiens, UniProt P55899)
- Sequence (P55899 whole entry): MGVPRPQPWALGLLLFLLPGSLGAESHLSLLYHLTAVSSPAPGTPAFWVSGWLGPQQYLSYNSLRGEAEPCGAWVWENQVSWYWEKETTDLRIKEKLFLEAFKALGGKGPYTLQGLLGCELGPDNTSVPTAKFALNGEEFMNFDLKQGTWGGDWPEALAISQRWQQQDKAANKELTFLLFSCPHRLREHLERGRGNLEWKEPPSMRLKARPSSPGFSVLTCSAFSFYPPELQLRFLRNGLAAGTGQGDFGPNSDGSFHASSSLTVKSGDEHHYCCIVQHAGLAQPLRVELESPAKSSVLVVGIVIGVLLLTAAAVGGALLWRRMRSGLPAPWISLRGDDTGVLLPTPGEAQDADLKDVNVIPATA
- Test summary: Inhibition of human IgG binding to soluble human FcRn by ELISA
Quantity: IC50 (µM)

* CC(C)C[C@@H](C(=O)N[C@@H](Cc1ccc(O)cc1)C(=O)N1CCC[C@H]1C(=O)N[C@@H](CS)C(=O)O)N(C)C(=O)CN(C)C(=O)CNC(=O)[C@H](Cc1ccccc1)NC(=O)[C@H](CCCN)NC(=O)CNC(=O)[C@@H](NC(=O)[C@@H](NC(=O)[C@H](Cc1ccccc1)NC(=O)[C@@H](N)CCCNC(=N)N)C(C)(C)S)[C@@H](C)O | 12
